# ASSAY_PROTOCOL: inhibition of 3D7 malaria parasite growth – strain 3D7 (AID 2306);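 note: 0% = DMSO wells and 100% = chloroquine plus artemisinin control wells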
# ASSAY_SETUP: P. falciparum 3D7 erythrocytic growth, LDH absorbance, 72 h; at 2 µM; hits give high values
REPORTED_ENDPOINT: growth inhibition (%)
Response body: numeric value in %, unit text excluded.

Some solved cases for reference:
- QUERY_SMILES: "COc1ccc2nc(C)cc(NC3Cc4ccccc4C3)c2c1"
  VAL: 98
- QUERY_SMILES: "C[C@H](Cc1ccc(OCCCCCCOc2ccc(C[C@@H](C)N[C@H](C)c3ccccc3)cc2)cc1)NC[C@H](O)c1cccc(Cl)c1"
  VAL: 99
- QUERY_SMILES: "CCN(CC)CCN(Cc1ccc(-c2ccc(C(F)(F)F)cc2)cc1)C(=O)Cn1c(SCc2ccc(F)cc2)cc(=O)c2ccccc21"
  VAL: 101
- QUERY_SMILES: "CC1(C)CC(=O)c2c(O)cc(OCc3ccncc3)cc2O1"
  VAL: 92
- QUERY_SMILES: "CC(C)(C)c1ccc(NC(=O)c2ccc(CN3CCCN(Cc4ccc(F)cc4)CC3)cc2)cc1"
  VAL: 87
- QUERY_SMILES: "CS(=O)(=O)Nc1cccc(-c2cnc3[nH]cc(-c4cc(N)cc(C(=O)O)c4)c3c2)c1"
  VAL: 96

Name the reported growth inhibition value associated with the molecule `CCOc1ccc2nc(C)cc(NN=Cc3ccccc3[N+](=O)[O-])c2c1`
101

And the next one, `CC(C)C[C@H](NC(=O)c1cccc(F)c1)C(=O)N[C@H](/C=N/NC(=O)c1ccccc1)CCc1ccccc1` ?
93

How about `N[C@@H](Cc1cc(I)c(Oc2ccc(O)c(Cl)c2)c(I)c1)C(=O)O` ?
96

* * *

Quick reference: inhibition of the listed items.
# ASSAY_PROTOCOL: human hepatoma cell viability loss – ATP luminescence, cytotoxicity control for P. falciparum antimalarial project, primary screen (AID 2303);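 note: 0% = DMSO wells and 100% = digitonin-killed cells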
# ASSAY_SETUP: HepG2 viability, 24-48 h, at 10 µM, hits give high values
Activity calls are given as the source filed them.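 Rule for the calls: active = inhibition above 50%; inactive = the rest.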

- COMPOUND: "CN1CCN(c2ccc(CNc3ccc4ncc(-c5cccc(OC(F)(F)F)c5)n4n3)cc2)CC1"
  inhibition: "25% (inactive)"

Alright, here's another compound for you.
Suppose we examine the compound NC(=O)c1ccsc1NC(=O)CNC(c1ccc(F)cc1)c1cccs1 (centres undefined) ; what inhibition value has been reported?
31% (inactive)

* * *

# TARGET_OR_SYSTEM: Protein kinase 7 (PK7), Plasmodium falciparum 3D7 (PF3D7_0213400) (UniProt Q7YTF7)
# ASSAY_PROTOCOL: inhibition of Plasmodium PK7 catalytic activity – biochemical, TCAMS antimalarial set, Kinase-Glo luminescence (AID 1159587)
# ASSAY_SETUP: recombinant PfPK7, Kinase-Glo ATP depletion luminescence
Active and inactive are the calls of the source. No rule for the calls is given here.
REPORTED_ENDPOINT: outcome

- COMPOUND: "O=C(C=Cc1ccc(Cl)c(Cl)c1)NCCCCCN1CCCC(CCCNS(=O)(=O)c2cccc(C(F)(F)F)c2)C1 (centres undefined)"
  REPORTED_ENDPOINT: "outcome"
  VAL: "inactive"
- COMPOUND: "CN1CCN(c2ccnc3cc4c(cc23)N(C(=O)Nc2ccc(-c3ccncc3)c3ccccc23)CC4)CC1"
  REPORTED_ENDPOINT: "outcome"
  VAL: "inactive"
- COMPOUND: "COc1ccc(CON2C(N)=NC(N)=NC2(C)C)cc1OC"
  REPORTED_ENDPOINT: "outcome"
  VAL: "inactive"
- COMPOUND: "COc1ccc(-c2cccc(NC(=O)c3cccc(Cl)c3)c2)cc1CN(C)CCN(C)C"
  REPORTED_ENDPOINT: "outcome"
  VAL: "inactive"
- COMPOUND: "COc1ccc(Cn2c(Nc3cccc(C(F)(F)F)c3)nc3cc(C(=O)NC(C)C)cnc32)cc1Cl"
  REPORTED_ENDPOINT: "outcome"
  VAL: "inactive"
- COMPOUND: "CCN1CCC(N(Cc2ccc(-c3ccc(C(F)(F)F)cc3)o2)C(=O)Cn2c(CCc3cccc(F)c3F)nc(=O)c3ccccc32)CC1"
  REPORTED_ENDPOINT: "outcome"
  VAL: "inactive"
- COMPOUND: "O=C(NCc1ccco1)c1ccc(S(=O)(=O)c2ccc(Cl)cc2)cc1"
  REPORTED_ENDPOINT: "outcome"
  VAL: "inactive"
- COMPOUND: "Cc1cc(C(=O)CN2C(=O)NC3(CCCc4ccccc43)C2=O)c(C)n1Cc1ccco1 (centres undefined)"
  REPORTED_ENDPOINT: "outcome"
  VAL: "inactive"

Request the reported outcome associated with N#Cc1ccc2c(c1)CCN(CCC1CCC(NC(=O)/C=C/c3nc4ccccc4s3)CC1)CC2 (centres undefined)
inactive

* * *

# ASSAY_PROTOCOL: antimalarial activity against Dd2 strain (AID 2302);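 note: 0% = DMSO untreated growth and 100% = chloroquine plus artemisinin killed control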
# ASSAY_SETUP: P. falciparum Dd2 in RBCs, LDH growth readout, 72 h; at 2 µM; hits give high values
Label Criterion met for high-side growth inhibition (at or above 80%) and Criterion not met for low-side growth inhibition (below it).

// known answers, use as guide
- COMPOUND: "CC(N)(Cc1ccc(O)cc1)c1nn[nH]n1 (stereo not given)"
  ASSIGNED_LABEL: "Criterion not met"
- COMPOUND: "CCCCCCCN1CC[C@H](NC(=O)Nc2ccnc3ccc(OC)cc23)[C@H](CO)C1"
  ASSIGNED_LABEL: "Criterion not met"
- COMPOUND: "COc1ccc(-c2cnc3ccc(NCc4ccc(F)cc4)nn23)cc1OC"
  ASSIGNED_LABEL: "Criterion met"
- COMPOUND: "COc1ccc2nccc([C@@H](O)CN3CCC(NC(=O)/C=C/c4c[nH]c5c(C)cccc45)CC3)c2c1"
  ASSIGNED_LABEL: "Criterion met"
- COMPOUND: "CCCCCCN1CCN(Cc2cccc(NC(=O)c3cc4ccccc4o3)c2)CC1"
  ASSIGNED_LABEL: "Criterion met"
- COMPOUND: "CCCC(CNCc1cccc(I)c1)CNc1cc(=O)c2ccccc2[nH]1 (stereo not given)"
  ASSIGNED_LABEL: "Criterion met"

Confirm if growth inhibition reported for the compound `O=C(Nc1cccc(C(F)(F)F)c1)c1ccc(S(=O)(=O)NCC2CCN(CC3CCCCC3)CC2)cc1` is 80% or above.
Criterion not met

// query: `O=C1CCCN1CCCNCc1ccc(-c2ccc(-c3nc4ccc(C(F)(F)F)cc4[nH]3)s2)cc1`
Criterion met

Try this compound too: `Nc1c2c(nc3ccc(NC(=O)CCCCCCc4ccccc4)cc13)CCCC2`
Criterion met

Also `O=C(Nc1ccc2c(c1)CCNCC2)c1ccc(-c2ccc(Cl)cc2)cc1` ?
Criterion not met

Please answer likewise for O=S(=O)(/C=C/c1ccccc1)N(Cc1ccc(-c2ccc(CNCCOc3ccccc3)cc2)cc1)CC1CCCCN1 (stereo not given)
Criterion met

Subsequent entry: `c1ccc2[nH]c(Nc3ccc(Nc4nc5ccccc5[nH]4)cc3)nc2c1`
Criterion not met

Moving on to the next compound: `N#Cc1c(N)n(CCc2ccc(F)cc2)c2nc3ccccc3nc12`
Criterion not met

Could you do the same for `CC(=O)Nc1ccc(CN2CCC(NC(=O)c3ccc(-c4cccc(C(F)(F)F)c4)s3)CC2)cc1` , please?
Criterion not met

Follow-up entry: OC(CNCc1ccccc1OCc1ccccc1)c1cc(C(F)(F)F)cc(C(F)(F)F)c1 (stereo not given)
Criterion met

// same read-out, input: `Cc1[nH]c2ccc(C#N)cc2c(=O)c1Br`
Criterion not met

Lookup `Cn1nc(-c2ccc(S(=O)(=O)N3CCC(CCN4CCC(c5c[nH]c6ccccc56)CC4)CC3)s2)cc1C(F)(F)F`
Criterion not met

What would you report for `CCOC(=O)CN1Cc2cc(NCc3ccc4ccc5nc(C)[nH]c(=O)c5c4c3)ccc2C1=O` ?
Criterion met

Input COc1cc(OC)c(NC(=O)C2c3ccccc3C(=O)N(C)C2c2cccs2)cc1Cl (stereo not given)
Criterion not met

Continue with `COc1cc(OC)cc(-c2nnc(Sc3ccc(C#N)c([N+](=O)[O-])c3)n2C)c1`
Criterion not met

Subsequent entry: `O=C(Nc1ccnc2ccccc12)NC1CCN(Cc2ccccc2)CC1`
Criterion not met

* * *

# TARGET_OR_SYSTEM: L-lactate dehydrogenase (Plasmodium falciparum (isolate CDC / Honduras))
# ASSAY_PROTOCOL: PfLDH activity inhibition – cell lysate, 3D7 strain, counter-screen for P. falciparum growth inhibition project (AID 2304);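 note: 0% = vehicle and 100% = reference inhibitor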
# ASSAY_SETUP: P. falciparum 3D7 crude extract, LDH APAD/NBT absorbance; at 2 µM; hits give high values
REPORTED_ENDPOINT: inhibition (%)
Reply numerically in %, unit not repeated.

Example cases with answers are listed next.
- COMPOUND: "Cc1cccc2[nH]c(-c3ccc(-c4ccc(CNCc5ccc(CN)cc5)cc4)cc3)nc12"
  ENDPOINT_UNIT: "%"
  VAL: -4
- COMPOUND: "CC(C)CNCc1ccc(-c2cccc(CNC3CCN(Cc4ccccc4)CC3)c2)cc1"
  ENDPOINT_UNIT: "%"
  VAL: -9
- COMPOUND: "COc1ccc2ncc(F)c(CCN3C[C@H](CNCc4ccc5ccccc5c4)[C@H](O)C3)c2n1"
  ENDPOINT_UNIT: "%"
  VAL: -3
- COMPOUND: "Cc1ccc(-n2cc(CNCCCn3ccnc3)c(-c3cccc(C)c3)n2)cc1"
  ENDPOINT_UNIT: "%"
  VAL: -2
- COMPOUND: "COc1ccc(Nc2nccc(NCC(O)c3ccc(C(F)(F)F)cc3)n2)cc1 (stereo not given)"
  ENDPOINT_UNIT: "%"
  VAL: -1

Lab note: need inhibition with L-lactate dehydrogenase (Plasmodium falciparum (isolate CDC / Honduras)) for entry `CN(CCCc1c[nH]c2ccccc12)CC1CCN(C(=O)/C=C/c2ccc(Cl)c(Cl)c2)CC1` , please look it up.
-1

Also check `COc1ccc2nccc([C@@H](O)CN3CCC(NC(=O)c4ccc(-c5ccccc5)s4)CC3)c2c1`
-6

Same question for `Oc1ccc(CCNCc2ccc(OCc3ccccc3)c(OCc3ccccc3)c2)cc1` please.
-3

Another compound to check: `Cc1nn(CC(C)C)c2sc(C(=O)Nc3nc(-c4ccccn4)cs3)cc12`
1

And what about the compound `COc1cc2nc(NCCn3cccn3)nc(NCCc3ccccc3)c2cc1OC` ?
-3
